Recorded pIC50 values (hCyp18 (Homo sapiens)) are given below.
pIC50: −log10 of the molar value.

Some solved cases for reference:
{"columns": ["Compound", "pIC50"],
 "data": [
  ["Cc1c(Cl)cc(NC(=O)CC(C)CC(C)(C)C)c(O)c1Cl (stereo not shown) [Compound 599]", "< 4.00"],
  ["Cc1c(Cl)cc(NCc2c(F)cccc2Cl)c(O)c1Cl [Compound 512]", "4.00 to 4.30"]
]}

Query: Need pIC50 of CC(C)(C)CC(C)(C)NC(=O)Nc1cc(Cl)c(O)c(Cl)c1 [Compound 703] , thanks.
Response: < 4.00

###

Assay method text: WST-1 cytotoxicity assay, MCF-7
Format: cell-based
Condition details: human, MCF-7 cells (breast adenocarcinoma); WST-1, 48 h incubation; read-out: EC50 class, cytotoxic effect, CL-5 (MCF-7)
Procedure: For this cytotoxic evaluation of the compounds the commercial available WST-1 assay (Roche) was used according to the manufacturer's instructions. The assay is based on the cleavage of the tetrazolium salt WST-1 by mitochondrial dehydrogenases found in viable cells. In general compounds were added to cells cultured in 96-well plates at 37° C. After 48 h of incubation 10 μl of WST-1 solution was added. The formazan dye was analyzed with an ELISA plate reader at (450 vs. 620) nm. […]
Let's look at some compounds and their measured EC50 at 48 h.

{"columns": ["Mol smiles", "Reported result"],
 "data": [
  ["CC(C)NC(=S)Nc1cc(-c2nc3ccccc3s2)cc(Cl)c1O", "10 to 50 µM"],
  ["Cc1c(Cl)cc(NC(=S)Nc2ccc(C(F)(F)F)cc2)c(O)c1Cl", "< 10 µM"],
  ["Oc1c(Cl)cc(-c2nc3ccccc3s2)cc1NC(=S)NC1CCCC1", "10 to 50 µM"],
  ["Oc1c(Cl)cc(Cl)cc1NC(=S)Nc1ccccc1C(F)(F)F", "10 to 50 µM"],
  ["Cc1c(Cl)cc(NC(=S)Nc2ccccc2C(F)(F)F)c(O)c1Cl", "10 to 50 µM"],
  ["CC(C)(C)NC(=S)Nc1cc(-c2nc3ccccc3s2)cc(Cl)c1O", "10 to 50 µM"],
  ["CC(C)(C)CC(C)(C)NC(=O)Nc1cc(Cl)ccc1O", "< 10 µM"],
  ["O=C(Nc1cc(Cl)c(O)c(NCc2ccccc2Sc2ccc(Cl)cc2)c1)N1CCOCC1", "< 10 µM"]
]}

Lab note: next compound to report on.
Query: Need EC50 at 48 h of O=C(Nc1cc(Cl)cc(Cl)c1O)c1ccc(-c2ccccc2)cc1 , thanks.
Response: < 10 µM
